IC50 values, listed per item
- SUBJECT_OF_TEST: HIV-1 protease (Human immunodeficiency virus type 1 group M subtype B)
- Construct: made in house; host or cells: E. coli K12 L507/pHP10D (NRRL B-18560)
- MEASUREMENT_DESCRIPTION: biochemical
- MEASUREMENT_PARAMETERS: read-out: Fluorescence Assay IC50 (converted)
- Protocol: A culture of E. coli K12 L507/pHP10D was grown to mid-log phase at 32° C. in LB media containing 12.5 μg/ml tetracycline. […] Enzymatic activity was measured by HPLC using the synthetic peptide SQNYPIV as described in Margolin et al., Biochem. Biophys. Res. Commun., […], 554-560 (1990); the production of the p1 peptide (SQNY) was measured. […] The following buffers and solutions are used in the Fluorescence HIV-1 Protease Inhibitor Assay: […]
REPORTED_PROPERTY: IC50 (nM)

>>> recorded_measurement("CCCC[C@H](NC(=O)N(C)Cc1ccc2ccccc2n1)C(=O)N[C@@H](Cc1ccccc1)[C@@H]1O[C@@H]1[C@H](Cc1ccccc1)NC(=O)[C@H](CCCC)NC(=O)N(C)Cc1ccc2ccccc2n1")
437
>>> recorded_measurement("CC[C@H](NC(=O)OCc1ccccc1)C(=O)N[C@@H](Cc1ccccc1)[C@@H]1O[C@@H]1[C@H](Cc1ccccc1)NC(=O)[C@H](CC)NC(=O)OCc1ccccc1")
14.4
>>> recorded_measurement("CC[C@H](C)[C@H](NC(=O)NCc1ccccn1)C(=O)N[C@@H](Cc1ccccc1)[C@@H]1O[C@@H]1[C@H](Cc1ccccc1)NC(=O)[C@@H](NC(=O)NCc1ccccn1)[C@@H](C)CC")
32.4
>>> recorded_measurement("CC[C@H](NC(=O)OCc1ccc2ccccc2n1)C(=O)N[C@@H](Cc1ccccc1)[C@@H]1O[C@@H]1[C@H](Cc1ccccc1)NC(=O)[C@H](CC)NC(=O)OCc1ccc2ccccc2n1")
2.19
>>> recorded_measurement("CC[C@H](NC(=O)N(C)Cc1ccccn1)C(=O)N[C@@H](Cc1ccccc1)[C@@H]1O[C@@H]1[C@H](Cc1ccccc1)NC(=O)[C@H](CC)NC(=O)N(C)Cc1ccccn1")
1090
>>> recorded_measurement("CC[C@H](NC(=O)N(C)Cc1ccc2ccccc2n1)C(=O)N[C@@H](CCCc1ccccc1)[C@@H]1O[C@@H]1[C@H](CCCc1ccccc1)NC(=O)[C@H](CC)NC(=O)N(C)Cc1ccc2ccccc2n1")
23.8
>>> recorded_measurement("CN(Cc1ccc2ccccc2n1)C(=O)N[C@@H](CC#N)C(=O)N[C@@H](Cc1ccccc1)[C@@H]1O[C@@H]1[C@H](Cc1ccccc1)NC(=O)[C@H](CC#N)NC(=O)N(C)Cc1ccc2ccccc2n1")
30.7
>>> recorded_measurement("O=C(N[C@@H](Cn1cccn1)C(=O)N[C@@H](Cc1ccccc1)[C@@H]1O[C@@H]1[C@H](Cc1ccccc1)NC(=O)[C@H](Cn1cccn1)NC(=O)OCc1ccccc1)OCc1ccccc1")
8260
>>> recorded_measurement("Cc1cccc(COC(=O)N[C@H](C(=O)N[C@@H](Cc2ccccc2)[C@@H]2O[C@@H]2[C@H](Cc2ccccc2)NC(=O)[C@@H](NC(=O)OCc2cccc(C)n2)C(C)C)C(C)C)n1")
39.2
>>> recorded_measurement("CCC[C@H](NC(=O)N(C)Cc1ccc2ccccc2n1)C(=O)N[C@@H](Cc1ccccc1)[C@@H]1O[C@@H]1[C@H](Cc1ccccc1)NC(=O)[C@H](CCC)NC(=O)N(C)Cc1ccc2ccccc2n1")
66.1
